target: UniProt:P19793; assay: Agonist activity at RXRalpha in HEK293 cells assessed as transcriptional activation after 48 hrs by luciferase reporter gene assay; assay type: functional, cell-based
Sequence (P19793 whole entry): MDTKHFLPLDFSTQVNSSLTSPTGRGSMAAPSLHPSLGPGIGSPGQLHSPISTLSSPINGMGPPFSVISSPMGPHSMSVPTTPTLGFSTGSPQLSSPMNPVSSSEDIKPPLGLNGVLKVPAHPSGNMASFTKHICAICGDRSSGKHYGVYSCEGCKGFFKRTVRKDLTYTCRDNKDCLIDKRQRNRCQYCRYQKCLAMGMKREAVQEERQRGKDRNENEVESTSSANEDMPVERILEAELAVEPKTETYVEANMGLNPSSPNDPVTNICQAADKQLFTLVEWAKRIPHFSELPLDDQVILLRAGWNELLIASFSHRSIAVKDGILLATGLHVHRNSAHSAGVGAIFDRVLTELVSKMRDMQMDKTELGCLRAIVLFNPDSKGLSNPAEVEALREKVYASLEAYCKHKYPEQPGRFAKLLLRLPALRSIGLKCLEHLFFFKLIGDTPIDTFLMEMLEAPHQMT
Quantity name: pEC50
pEC50 is defined as minus the log10 of a concentration measured in mol/L.

Exam item: Hi! What's the reported pEC50 for C=CCc1ccc(O)c(-c2ccc(O)c(CC=C)c2)c1 on UniProt:P19793?
Marked response: 4.93

Numbers sourced from ChEMBL document CHEMBL1212931.
